Biological target: topoisomerase II (Cricetulus griseus)
Sequence (P41515 whole entry): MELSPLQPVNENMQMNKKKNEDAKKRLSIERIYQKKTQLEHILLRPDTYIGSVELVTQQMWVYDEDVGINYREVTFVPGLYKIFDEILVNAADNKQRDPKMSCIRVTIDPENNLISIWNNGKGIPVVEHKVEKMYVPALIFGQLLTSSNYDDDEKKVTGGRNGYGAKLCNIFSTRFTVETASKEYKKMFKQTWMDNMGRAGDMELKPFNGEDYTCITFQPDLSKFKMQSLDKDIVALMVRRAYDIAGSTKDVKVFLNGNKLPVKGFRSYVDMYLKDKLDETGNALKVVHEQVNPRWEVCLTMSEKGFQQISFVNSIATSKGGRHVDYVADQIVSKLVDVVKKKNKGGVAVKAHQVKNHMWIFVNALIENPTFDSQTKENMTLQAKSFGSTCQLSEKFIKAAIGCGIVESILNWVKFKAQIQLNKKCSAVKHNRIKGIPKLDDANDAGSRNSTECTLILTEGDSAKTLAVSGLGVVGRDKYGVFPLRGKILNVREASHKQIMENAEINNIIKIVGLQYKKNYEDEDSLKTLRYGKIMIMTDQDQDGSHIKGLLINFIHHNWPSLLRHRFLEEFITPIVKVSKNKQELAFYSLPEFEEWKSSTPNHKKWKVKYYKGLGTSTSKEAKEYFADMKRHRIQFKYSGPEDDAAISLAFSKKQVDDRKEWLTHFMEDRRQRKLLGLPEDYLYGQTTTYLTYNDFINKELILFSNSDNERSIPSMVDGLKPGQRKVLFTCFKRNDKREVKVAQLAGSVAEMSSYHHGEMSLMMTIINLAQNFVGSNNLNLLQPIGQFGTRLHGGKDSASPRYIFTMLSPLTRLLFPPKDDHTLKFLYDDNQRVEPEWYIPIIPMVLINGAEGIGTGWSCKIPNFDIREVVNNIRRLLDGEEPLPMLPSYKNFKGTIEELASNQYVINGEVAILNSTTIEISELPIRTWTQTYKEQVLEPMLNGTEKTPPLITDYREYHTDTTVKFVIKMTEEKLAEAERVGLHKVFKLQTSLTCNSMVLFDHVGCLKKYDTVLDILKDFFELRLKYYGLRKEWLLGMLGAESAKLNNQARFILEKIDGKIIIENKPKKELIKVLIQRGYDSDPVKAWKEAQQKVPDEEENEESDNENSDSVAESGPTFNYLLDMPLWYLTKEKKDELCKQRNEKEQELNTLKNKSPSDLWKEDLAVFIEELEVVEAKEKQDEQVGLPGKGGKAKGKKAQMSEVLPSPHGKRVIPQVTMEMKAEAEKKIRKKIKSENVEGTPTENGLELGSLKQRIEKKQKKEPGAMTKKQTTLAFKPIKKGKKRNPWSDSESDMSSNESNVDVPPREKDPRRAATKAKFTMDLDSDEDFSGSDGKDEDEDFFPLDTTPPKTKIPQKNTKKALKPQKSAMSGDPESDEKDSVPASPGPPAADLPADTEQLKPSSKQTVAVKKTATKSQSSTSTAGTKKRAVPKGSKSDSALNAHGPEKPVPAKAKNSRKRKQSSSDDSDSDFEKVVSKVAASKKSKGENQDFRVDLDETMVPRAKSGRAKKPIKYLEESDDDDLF
pIC50: −log10 of the molar value.

# molecule, reading.qualifier, pIC50
data = [
    ("COc1cc([C@@H]2c3cc4c(cc3[C@@H](O[C@@H]3O[C@@H]5CO[C@@H](C)O[C@H]5[C@H](O)[C@H]3O)[C@H]3COC(=O)[C@H]23)OCO4)cc(OC)c1O [Etoposide, reference compound]", "=", 4.25),
    ("COc1cc([C@@H]2c3cc4c(cc3[C@@H](O[C@@H]3O[C@@H]5CO[C@@H](C)O[C@H]5[C@H](OC(=O)COc5ccc(OCC(=O)O)cc5)[C@H]3OC(=O)COc3ccc(OCC(=O)O)cc3)[C@H]3COC(=O)[C@H]23)OCO4)cc(OC)c1OC(=O)COc1ccc(OCC(=O)O)cc1", "=", 5.25),
    ("COc1cc([C@@H]2c3cc4c(cc3[C@@H](O[C@@H]3O[C@@H]5CO[C@@H](C)O[C@H]5[C@H](O)[C@H]3O)[C@H]3COC(=O)[C@H]23)OCO4)cc(OC)c1OP(=O)(O)O [Etopofos, reference compound]", "<", 4.00),
    ("COc1cc([C@@H]2c3cc4c(cc3[C@@H](O[C@@H]3O[C@@H]5CO[C@@H](C)O[C@H]5[C@H](OC(=O)CS(=O)(=O)c5ccccc5)[C@H]3OC(=O)CS(=O)(=O)c3ccccc3)[C@H]3COC(=O)[C@H]23)OCO4)cc(OC)c1OP(=O)(O)O", "=", 5.25),
    ("COc1cc([C@@H]2c3cc4c(cc3[C@@H](O[C@@H]3O[C@@H]5CO[C@@H](C)O[C@H]5[C@H](OC(=O)COc5ccc(F)cc5)[C@H]3OC(=O)COc3ccc(F)cc3)[C@H]3COC(=O)[C@H]23)OCO4)cc(OC)c1OP(=O)(O)O", "=", 5.74),
    ("COc1cc([C@@H]2c3cc4c(cc3[C@@H](O[C@@H]3O[C@@H]5CO[C@@H](C)O[C@H]5[C@H](OC(=O)COc5ccc(OC(F)(F)F)cc5)[C@H]3OC(=O)COc3ccc(OC(F)(F)F)cc3)[C@H]3COC(=O)[C@H]23)OCO4)cc(OC)c1OP(=O)(O)O", "=", 6.49),
    ("COc1cc([C@@H]2c3cc4c(cc3[C@@H](O[C@@H]3O[C@@H]5CO[C@@H](C)O[C@H]5[C@H](OC(=O)COc5ccc(O)cc5)[C@H]3OC(=O)COc3ccc(O)cc3)[C@H]3COC(=O)[C@H]23)OCO4)cc(OC)c1OC(=O)N(CC(=O)O)CC(=O)O", "=", 5.25),
]

---

Experiment: Measurement of the water-solubility of the salts
Assay type: physicochemical
Settings: triethanolamine salt, read-out: % solubility (weight/volume) expressed in g per 100 ml of water
endpoint: solubility (mg/mL)

# smiles.data, measurement
rows = [
    ("COc1cc([C@@H]2c3cc4c(cc3[C@@H](O[C@@H]3O[C@@H]5CO[C@@H](C)O[C@H]5[C@H](OC(=O)COc5ccc(OP(=O)(O)O)cc5)[C@H]3OC(=O)COc3ccc(OP(=O)(O)O)cc3)[C@H]3COC(=O)[C@H]23)OCO4)cc(OC)c1OC(=O)COc1ccc(OP(=O)(O)O)cc1", 200),
]

---

Test: Measurement of the water-solubility of the salts
Type: physicochemical
Conditions: N-methylglucamine salt, read-out: % solubility (weight/volume) expressed in g per 100 ml of water

# smiles.data, solubility / mg/mL
data = [
    ("COc1cc([C@@H]2c3cc4c(cc3[C@@H](O[C@@H]3O[C@@H]5CO[C@@H](C)O[C@H]5[C@H](OC(=O)COc5ccc(F)cc5)[C@H]3OC(=O)COc3ccc(F)cc3)[C@H]3COC(=O)[C@H]23)OCO4)cc(OC)c1OP(=O)(O)O", 100),
    ("COc1cc([C@@H]2c3cc4c(cc3[C@@H](O[C@@H]3O[C@@H]5CO[C@@H](C)O[C@H]5[C@H](OC(=O)COc5ccc(OP(=O)(O)O)cc5)[C@H]3OC(=O)COc3ccc(OP(=O)(O)O)cc3)[C@H]3COC(=O)[C@H]23)OCO4)cc(OC)c1OC(=O)COc1ccc(OP(=O)(O)O)cc1", 100),
    ("COc1cc([C@@H]2c3cc4c(cc3[C@@H](O[C@@H]3O[C@@H]5CO[C@@H](C)O[C@H]5[C@H](OC(=O)COc5ccc(O)cc5)[C@H]3OC(=O)COc3ccc(O)cc3)[C@H]3COC(=O)[C@H]23)OCO4)cc(OC)c1OC(=O)N(CC(=O)O)CC(=O)O", 100),
    ("COc1cc([C@@H]2c3cc4c(cc3[C@@H](O[C@@H]3O[C@@H]5CO[C@@H](C)O[C@H]5[C@H](OC(=O)COc5ccc(Cl)cc5)[C@H]3OC(=O)COc3ccc(Cl)cc3)[C@H]3COC(=O)[C@H]23)OCO4)cc(OC)c1OP(=O)(O)O", 5),
    ("COc1cc([C@@H]2c3cc4c(cc3[C@@H](O[C@@H]3O[C@@H]5CO[C@@H](C)O[C@H]5[C@H](OC(=O)COc5ccc(OP(=O)(O)O)cc5)[C@H]3OC(=O)COc3ccc(OP(=O)(O)O)cc3)[C@H]3COC(=O)[C@H]23)OCO4)cc(OC)c1OP(=O)(O)O", 100),
    ("COc1cc([C@@H]2c3cc4c(cc3[C@@H](O[C@@H]3O[C@@H]5CO[C@@H](C)O[C@H]5[C@H](OC(=O)COc5ccccc5)[C@H]3OC(=O)COc3ccccc3)[C@H]3COC(=O)[C@H]23)OCO4)cc(OC)c1OP(=O)(O)O", 5),
    ("COc1cc([C@@H]2c3cc4c(cc3[C@@H](O[C@@H]3O[C@@H]5CO[C@@H](C)O[C@H]5[C@H](OC(=O)CS(=O)(=O)c5ccccc5)[C@H]3OC(=O)CS(=O)(=O)c3ccccc3)[C@H]3COC(=O)[C@H]23)OCO4)cc(OC)c1OP(=O)(O)O", 100),
]

---

Experiment: Measurement of the water-solubility of the salts
Assay type: physicochemical
Conditions: N-methylglucamine salt, read-out: % solubility (weight/volume) expressed in g per 100 ml of water
Attribute: solubility

# molecule, solubility, mg/mL
measured = [
    ("COc1cc([C@@H]2c3cc4c(cc3[C@@H](O[C@@H]3O[C@@H]5CO[C@@H](C)O[C@H]5[C@H](OC(=O)COc5ccc(OCC(=O)O)cc5)[C@H]3OC(=O)COc3ccc(OCC(=O)O)cc3)[C@H]3COC(=O)[C@H]23)OCO4)cc(OC)c1OC(=O)COc1ccc(OCC(=O)O)cc1 [Example 26]", 100),
    ("COc1cc([C@@H]2c3cc4c(cc3[C@@H](O[C@@H]3O[C@@H]5CO[C@@H](C)O[C@H]5[C@H](OC(=O)COc5ccc(OC(F)(F)F)cc5)[C@H]3OC(=O)COc3ccc(OC(F)(F)F)cc3)[C@H]3COC(=O)[C@H]23)OCO4)cc(OC)c1OP(=O)(O)O [Example 3]", 50),
]

---

Experiment: Measurement of the water-solubility of the salts
Format: physicochemical
Details: lysine salt, read-out: % solubility (weight/volume) expressed in g per 100 ml of water
endpoint: solubility (mg/mL)

# smiles.data, units.symbol, measurement
records = [
    ("COc1cc([C@@H]2c3cc4c(cc3[C@@H](O[C@@H]3O[C@@H]5CO[C@@H](C)O[C@H]5[C@H](OC(=O)COc5ccc(OP(=O)(O)O)cc5)[C@H]3OC(=O)COc3ccc(OP(=O)(O)O)cc3)[C@H]3COC(=O)[C@H]23)OCO4)cc(OC)c1OC(=O)COc1ccc(OP(=O)(O)O)cc1", "mg/mL", 200),
]

---

This section lists pIC50 readings for topoisomerase II (Cricetulus griseus, UniProt P41515).
pIC50: −log10 of the molar value.

# smiles.data, pIC50
data = [
    ("COc1cc([C@@H]2c3cc4c(cc3[C@@H](O[C@@H]3O[C@@H]5CO[C@@H](C)O[C@H]5[C@H](OC(=O)COc5ccc(Cl)cc5)[C@H]3OC(=O)COc3ccc(Cl)cc3)[C@H]3COC(=O)[C@H]23)OCO4)cc(OC)c1OP(=O)(O)O", 6.12),
    ("COc1cc([C@@H]2c3cc4c(cc3[C@@H](O[C@@H]3O[C@@H]5CO[C@@H](C)O[C@H]5[C@H](OC(=O)COc5ccc(OP(=O)(O)O)cc5)[C@H]3OC(=O)COc3ccc(OP(=O)(O)O)cc3)[C@H]3COC(=O)[C@H]23)OCO4)cc(OC)c1OP(=O)(O)O", 4.25),
    ("COc1cc([C@@H]2c3cc4c(cc3[C@@H](O[C@@H]3O[C@@H]5CO[C@@H](C)O[C@H]5[C@H](OC(=O)COc5ccc(OP(=O)(O)O)cc5)[C@H]3OC(=O)COc3ccc(OP(=O)(O)O)cc3)[C@H]3COC(=O)[C@H]23)OCO4)cc(OC)c1OC(=O)COc1ccc(OP(=O)(O)O)cc1", 6.49),
    ("COc1cc([C@@H]2c3cc4c(cc3[C@@H](O[C@@H]3O[C@@H]5CO[C@@H](C)O[C@H]5[C@H](OC(=O)COc5ccccc5)[C@H]3OC(=O)COc3ccccc3)[C@H]3COC(=O)[C@H]23)OCO4)cc(OC)c1OP(=O)(O)O", 5.25),
]
